Conditions: human
measured quantity: Hepatotoxicity (severe hepatitis)
# respond with the number and nothing more

CN1C(CCl)Nc2cc(Cl)c(S(N)(=O)=O)cc2S1(=O)=O (configuration not stated) [METHYCLOTHIAZIDE]	0

Ask: Any idea what its Hepatotoxicity (severe hepatitis) is? The compound is O=C(O)CCNC(=O)c1ccc(/N=N/c2ccc(O)c(C(=O)O)c2)cc1 [BALSALAZIDE]
Result: 0

###

Assay: Comments (NB not yet translated). [column 'COMMENTAIRES' in source]
Conditions: human
measured quantity: Hepatotoxicity (comment)

CN1CCN(CCCN2c3ccccc3Sc3ccc(C(F)(F)F)cc32)CC1	#CBP

###

Settings: human
measured quantity: Hepatotoxicity (severe hepatitis)
# respond with the number and nothing more

Consider the reported Hepatotoxicity (severe hepatitis) for these compounds:
CN(C)CCCC1(c2ccc(F)cc2)OCc2cc(C#N)ccc21 (stereo unspecified)	1
CCC1(c2ccccc2)C(=O)NC(=O)N(C)C1=O (stereo unspecified)	0
[N-]=[N+]=O [NITROUS OXIDE]	0
CC(CCC(=O)O)C1CC[C@H]2[C@@H]3CC[C@@H]4C[C@H](O)CC[C@]4(C)[C@H]3CC[C@]12C (stereo partly specified)	0
CS(=O)(=O)c1ccc2c(c1)N(CCCN1CCC(C(N)=O)CC1)c1ccccc1S2	0
CNCCON=c1c2ccccc2ccc2ccccc12	0
C(=N\NC1=NCCN1)/c1c2ccccc2c(/C=N/NC2=NCCN2)c2ccccc12	0
COc1ccc(C(=O)Nc2ccccc2CCC2CCCCN2C)cc1 (stereo unspecified) [ENCAINIDE]	0

Ask: Any idea what its Hepatotoxicity (severe hepatitis) is? The compound is `C[C@]12CCC(=O)C=C1CC[C@@H]1[C@@H]2C(=O)C[C@@]2(C)[C@H]1CC[C@]2(O)C(=O)CO`
Result: 0

Ask: Cool, now `C/C=C(/CC)C(=O)NC(N)=O`
Result: 0

Ask: Cool, now `CNC(=O)c1c(I)c(C(=O)NCC(=O)Nc2c(I)c(C(=O)O)c(I)c(C(=O)NCCO)c2I)c(I)c(N(C)C(C)=O)c1I`
Result: 0

Ask: Cool, now `CNCCNc1ccc2c3c(nn2CCNCCO)-c2c(O)ccc(O)c2C(=O)c13`
Result: 0

Ask: Cool, now `CCCc1c2oc(C(=O)O)cc(=O)c2cc2c(=O)cc(C(=O)O)n(CC)c12`
Result: 0

Ask: Cool, now `Clc1ccccc1C(c1ccccc1)(c1ccccc1)n1ccnc1`
Result: 0
